biological target: T1, human/mouse CD137 chimera 1553; assay: flow cytometry, 293-F cells with CD137 chimera
T1 construct: on transfected FreeStyle 293-F cells
measured_quantity: MFI/isotype control normalized to full-length human CD137

{"columns": ["binder", "observed_measurement"],
 "data": [
  ["1620/1621 (antibody, V domains shown) VH: EVQLLESGGGLVQPGGSLRLSCAASGFTFSGYYMYWVRQAPGKGLEWVSGISSSGSYTYYADSVKGRFTISRDNSKNTLYLQMNSLRAEDTAVYYCARSVGPYFDYWGQGTLVTVSS VL: DIQMTQSPSSLSASVGDRVTITCRASQSISSYLNWYQQKPGKAPKLLIYAASSLQSGVPSRFSGSGSGTDFTLTISSLQPEDFATYYCQQGVGPYTFGQGTKLEIK", 0.17],
  ["1200/1201 (antibody, V domains shown) VH: EVQLLESGGGLVQPGGSLRLSCAASGFTFSSYAMSWVRQAPGKGLEWVSGISGGGGGTYYADSVKGRFTISRDNSKNTLYLQMNSLRAEDTAVYYCARDVAYFDYWGQGTLVTVSS VL: DIQMTQSPSSLSASVGDRVTITCRASQSISSYLNWYQQKPGKAPKLLIYAASSLQSGVPSRFSGSGSGTDFTLTISSLQPEDFATYYCQQYYIPHTFGQGTKLEIK", 0.65],
  ["1618/1619 (antibody, V domains shown) VH: EVQLLESGGGLVQPGGSLRLSCAASGFTFSYGSMYWVRQAPGKGLEWVSSISSGSGSTYYADSVKGRFTISRDNSKNTLYLQMNSLRAEDTAVYYCARSSYYGSYYSIDYWGQGTLVTVSS VL: DIQMTQSPSSLSASVGDRVTITCRASQSISSYLNWYQQKPGKAPKLLIYAASSLQSGVPSRFSGSGSGTDFTLTISSLQPEDFATYYCQQYYDNLPTFGQGTKLEIK", 1.24],
  ["1202/1203 (antibody, V domains shown) VH: EVQLLESGGGLVQPGGSLRLSCAASGFTFYGSSMSWVRQAPGKGLEWVSSIYYGSSGTYYADSVKGRFTISRDNSKNTLYLQMNSLRAEDTAVYYCARSYYGYFDYWGQGTLVTVSS VL: DIQMTQSPSSLSASVGDRVTITCRASQSISSYLNWYQQKPGKAPKLLIYAASSLQSGVPSRFSGSGSGTDFTLTISSLQPEDFATYYCQQYYTVVPFTFGQGTKLEIK", 0.65],
  ["1626/1627 (antibody, V domains shown) VH: EVQLLESGGGLVQPGGSLRLSCAASGFTFGGYSMYWVRQAPGKGLEWVSSIGGYYYSTYYADSVKGRFTISRDNSKNTLYLQMNSLRAEDTAVYYCARSYYGSIDYWGQGTLVTVSS VL: DIQMTQSPSSLSASVGDRVTITCRASQSISSYLNWYQQKPGKAPKLLIYAASSLQSGVPSRFSGSGSGTDFTLTISSLQPEDFATYYCQQGTGYGPLTFGQGTKLEIK", 0.14],
  ["1204/1205 (antibody, V domains shown) VH: EVQLLESGGGLVQPGGSLRLSCAASGFTFSSYYMGWVRQAPGKGLEWVSGIGSYYGYTGYADSVKGRFTISRDNSKNTLYLQMNSLRAEDTAVYYCARAYYDYNYYYAYFDYWGQGTLVTVSS VL: DIQMTQSPSSLSASVGDRVTITCRASQSISSYLNWYQQKPGKAPKLLIYAASSLQSGVPSRFSGSGSGTDFTLTISSLQPEDFATYYCQQSVPHYPFTFGQGTKLEIK", 0.85]
]}
